# Test Protocol: Aqueous solubility of topiramate
# Type: physicochemical
# Test Context: water, 37 °C, thermodynamic from solid, range stated without source
Experimental Readout: solubility

Exercise: Requested read-out: solubility. Entry: CC1(C)O[C@@H]2[C@@H](CO[C@@]3(COS(N)(=O)=O)OC(C)(C)O[C@@H]23)O1 [Topiramate, topiramate]
Solution: 9.8 to 13 mg/mL
